Kindly state Kd for each of the entries shown.
targetOfAssay: T1, cynomolgus EREG (Biacore analyte) (cynomolgus monkey, UniProt O14944 63-108 (human entry), limits assumed)
T1 construct: also called cynomolgus monkey EREG; cEREG
T1 sequence (O14944 other isoform, or with tags, fused parts or gaps limits assumed): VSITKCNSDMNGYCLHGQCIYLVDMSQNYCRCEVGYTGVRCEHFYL
assayText: SPR (Biacore T100), antibody captured on Protein A, EREG as analyte, single-cycle kinetics

For chimeric antibody EP27 (cH-G1/cL-k) (antibody, human IgG1, kappa, V domains shown, mouse EP27 variable regions with human IgG1 (G1) and kappa constant regions; also called chimeric EP27) VH: EDQLQQSGAELVKPGASVKLSCTASGFNIKDTYIQWVKLRPEQGLEWIGRIDPLNGNTKYVPKFQGKATITADTSSNTAYLQLSSLTSEDTAVYYCVRSGTLFDFWGQGTTLTVSS VL: DIQMTQSPSSLSASLGGKVTITCKASQDIHKYIAWYQHKPGKGPRLLIQYTSTLQPGIPSRFSGSGSGRDYSFSISNLEPEDIATYYCLQYDNLRTFGGGTKLEIKR , what is its reported Kd?
5.2 nM

For H240-G1d/L73-k (antibody, human IgG1, kappa, V domains shown) VH: QDQLVQSGAEVKKPGASVKVSCKASGFNIKDTYIQWVRQAPGQGLEWMGRIDPLRKQTKYREKFEGRVTITADTSTNTAYMELSSLRSEDTAVYYCVRSGREFDYWGQGTLVTVSS VL: DIQMTQSPSSLSASVGDRVTITCRASQDIHKYIAWYQQKPGQAPRLLIQYTSTLQPGVPSRFSGSGSGTDYTFTISSLQPEDIATYYCLQYEQLRTFGGGTKVEIKR , what is its reported Kd?
0.87 nM
